# ASSAYED SYSTEM: UniProt Q8TDU6
# Sequence (Q8TDU6 whole entry): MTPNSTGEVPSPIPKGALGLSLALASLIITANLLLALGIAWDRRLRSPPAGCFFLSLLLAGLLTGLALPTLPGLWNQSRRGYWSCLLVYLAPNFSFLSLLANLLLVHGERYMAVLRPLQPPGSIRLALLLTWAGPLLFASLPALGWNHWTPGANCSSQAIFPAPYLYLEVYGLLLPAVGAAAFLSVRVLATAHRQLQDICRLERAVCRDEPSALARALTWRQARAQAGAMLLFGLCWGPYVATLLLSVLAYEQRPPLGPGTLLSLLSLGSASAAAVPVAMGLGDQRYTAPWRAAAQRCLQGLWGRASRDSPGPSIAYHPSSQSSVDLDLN
# ASSAY REMARKS: Agonist activity at TGR5 (unknown origin) expressed in HEK293T cells assessed as cAMP level by TR-FRET analysis
# Type: functional, cell-based
RESULT TYPE: EC50 (nM)

RECORD SMILES	MEASURED RESULT
COc1ccc(C(C)(C)c2cn(-c3ccc(F)cc3)c(SCc3c(F)cccc3Cl)n2)cc1OC	25
